Target: FGFR3 (UniProt P22607)
Sequence (P22607 whole entry, looked up): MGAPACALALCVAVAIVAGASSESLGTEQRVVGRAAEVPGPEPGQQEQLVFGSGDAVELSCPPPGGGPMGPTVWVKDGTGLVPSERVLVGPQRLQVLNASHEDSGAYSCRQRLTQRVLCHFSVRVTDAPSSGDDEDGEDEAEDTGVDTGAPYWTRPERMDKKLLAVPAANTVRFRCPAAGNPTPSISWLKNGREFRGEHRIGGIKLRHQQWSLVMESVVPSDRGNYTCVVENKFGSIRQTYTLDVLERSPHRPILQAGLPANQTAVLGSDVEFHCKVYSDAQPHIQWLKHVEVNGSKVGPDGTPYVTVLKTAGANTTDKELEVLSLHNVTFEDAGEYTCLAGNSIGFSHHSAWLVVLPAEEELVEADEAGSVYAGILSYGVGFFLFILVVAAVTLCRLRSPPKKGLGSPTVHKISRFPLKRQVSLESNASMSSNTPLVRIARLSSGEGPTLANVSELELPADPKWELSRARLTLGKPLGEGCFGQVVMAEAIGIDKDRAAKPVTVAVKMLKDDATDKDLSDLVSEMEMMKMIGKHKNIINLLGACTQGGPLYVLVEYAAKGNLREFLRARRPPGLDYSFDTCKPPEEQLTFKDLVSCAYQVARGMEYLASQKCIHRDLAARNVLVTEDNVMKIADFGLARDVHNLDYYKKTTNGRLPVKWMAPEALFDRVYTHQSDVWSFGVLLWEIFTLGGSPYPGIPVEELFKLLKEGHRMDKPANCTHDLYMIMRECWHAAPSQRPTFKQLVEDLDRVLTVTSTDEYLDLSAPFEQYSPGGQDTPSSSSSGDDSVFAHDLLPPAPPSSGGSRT
Assay: phosphorylation enrichment, bacterial display (enrichment ratio); higher = better substrate or ligand; peptides without Tyr show the background;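 further: 11-residue human phosphosite peptides and single-mutation variants displayed on the E. coli surface, counted by deep sequencing, each peptide's frequency after selection divided by its frequency in the unselected input library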;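 further: frequency after pTyr selection over input frequency; kinase dosed for 20-30% of maximal phosphorylation in three min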
Rule: phosphorylation enrichment of 0.8 or more gives yes; anything lower gives no.

Examples with answers:
{"columns": ["Residues", "System", "Qualitative Label"],
 "data": [
  ["EQKKFYNAVKK [SCN5A_Y1495_M1498V_YF]", "FGFR3 (UniProt P22607)", "no"],
  ["INSLKYAYNIS [EIF2B5_Y583]", "FGFR3 (UniProt P22607)", "no"],
  ["QRALLYEDALY [UNC13D_Y56]", "FGFR3 (UniProt P22607)", "yes"],
  ["GKSFTYAAFHA [KCNT1_Y563]", "FGFR3 (UniProt P22607)", "no"]
]}

Inquiry: # check: phosphorylation enrichment of NCLRVYVAGRF [CRB1_Y711_E710V] is greater than or equal to 0.8
Reply text: no

Inquiry: Hi team, for VEGIGYDFIPT [CBS_Y308] , is the recorded phosphorylation enrichment at or above 0.8?
Reply text: no

Attribution: the supplement of paper PMC10065799
